Listing of recorded pKd by entry.
# target desc: T1, TAX1_05 (short peptide of the Trans-activating transcriptional regulatory protein of HTLV-1: GSGAG a (HTLV-1A, biotin at N-terminus))
# T1 construct: source: synthetic peptide (JPT Peptide Technologies)
# procedure details: SPR
# condition info: both partners purified
Scale note: pKd = -log10(concentration in M).

# binder, pKd
measured = [
    ("MAGI1-2/6 (MBP fusion of the second of the six PDZ domains of MAGI1) (domain or fragment, source: E. coli BL21 DE3, purified (amylose column, Superdex 75 gel filtration)) KPFFTRNPSELKGKFIHTKLRKSSRGFGFTVVGGDEPDEFLQIKSLVLDGPAALDGKMETGDVIVSVNDTCVLGHTHAQVVKIFQSIPIGASVDLELCRGYPLPFDPDDPNTSLVTSVAILDKEP", 4.48),
]

Please find the next binder below.
Input line: For the binder shown here, SCRIB-34/4 (MBP fusion of the tandem of the third and fourth PDZ domains of SCRIB) (domain or fragment, also called MBP-PDZ analyte SCRIB-34/4; tandem PDZ construct; source: E. coli BL21 DE3, purified (amylose column, Superdex 75 gel filtration)) EGPYPVEEIRLPRAGGPLGLSIVGGSDHSSHPFGVQEPGVFISKVLPRGLAARSGLRVGDRILAVNGQDVRDATHQEAVSALLRPCLELSLLVRRDPAPPGLRELCIQKAPGERLGISIRGGARGHAGNPRDPTDEGIFISKVSPTGAAGRDGRLRVGLRLLEVNQQSLLGLTHGEAVQLLRSVGDTLTVLVCDGFE , give the reported pKd.
Output line: 6.00
